Catalogue of combination Emax readings, one per entry.
# Tested on: KYSE-450 (Esophageal Squamous Cell Carcinoma)
# Assay remarks: combination Emax (second highest fraction inhibited in the dose matrix, 72 h); higher = more inhibition; extreme values may be limits of the assay
Keep the answer to the number alone.

Solved cases below.
# Compound, combination Emax
records = [
    ("COc1nnc2ccc(N3CCC(c4ccc(OCCN5CCN(C)C(=O)[C@H]5C)cc4)CC3)nn12 [AZD5153] + C=CCn1c(=O)c2cnc(Nc3ccc(N4CCN(C)CC4)cc3)nc2n1-c1cccc(C(C)(C)O)n1 [AZD1775] (first compound max 1 µM, partner max 1 µM)", 0.519),
    ("C[C@@H](c1ccc2nccn2c1)n1nnc2ncc(-c3cnn(C)c3)nc21 [Savolitinib] + CC1(C)CCC(CN2CCN(c3ccc(C(=O)NS(=O)(=O)c4ccc(NCC5CCOCC5)c([N+](=O)[O-])c4)c(Oc4cnc5[nH]ccc5c4)c3)CC2)=C(c2ccc(Cl)cc2)C1 [Venetoclax] (first compound max 1 µM, 7x7, partner max 1 µM)", 0.0763),
]

Now, please, on to the next compound.
IN: May I ask what combination Emax has been recorded for COc1nnc2ccc(N3CCC(c4ccc(OCCN5CCN(C)C(=O)[C@H]5C)cc4)CC3)nn12 [AZD5153] + CCN(CCO)CCCOc1ccc2c(Nc3cc(CC(=O)Nc4cccc(F)c4)[nH]n3)ncnc2c1 [AZD2811] (first compound max 1 µM, 7x7, partner max 1 µM) ?
OUT: 0.358

* * *

# System: YH-13 (Glioblastoma)
# Assay remarks: Bliss excess, mean over the matrix (fraction); higher = more synergy
Catalogue of Bliss excess readings, one per entry.
Keep the answer to the number alone.

# Compound, Readout value
rows = [
    ("Cc1nc(-c2cn3c(n2)-c2ccc(-c4cnn(C(C)(C)C(N)=O)c4)cc2OCC3)n(C(C)C)n1 [Taselisib] + O=C(Nc1ccc2[nH]nc(-c3ccncc3)c2c1)[C@@H]1CCN(CC(=O)N2CCN(c3ccc(-c4ncccn4)cc3)CC2)C1 [SCH772984] (first compound max 10 µM, 7x7, partner max 5 µM)", -0.0586),
]

Now, please, on to the next compound.
IN: May I ask what Bliss excess has been recorded for C=CCn1c(=O)c2cnc(Nc3ccc(N4CCN(C)CC4)cc3)nc2n1-c1cccc(C(C)(C)O)n1 [AZD1775] + CCc1c2c(nc3ccc(O)cc13)-c1cc3c(c(=O)n1C2)COC(=O)[C@]3(O)CC [SN-38] (first compound max 1 µM, partner max 0.3 µM) ?
OUT: -0.0262

* * *

# Test system: NCI-H1915 (Non-Small Cell Lung Carcinoma)
# Assay remarks: Bliss excess, mean over the matrix (fraction); higher = more synergy
Quick rule: Bliss excess of at least -0.04 means MET, below that means NOT MET.

Here are 10 compounds together with their reported answers.
# Compound, Answer label
records = [
    ("CC(=O)c1c(C)c2cnc(Nc3ccc(N4CCNCC4)cn3)nc2n(C2CCCC2)c1=O [Palbociclib] + Cn1cnc2c(F)c(Nc3ccc(Br)cc3Cl)c(C(=O)NOCCO)cc21 [Selumetinib] (first compound max 10 µM, 7x7, partner max 10 µM)", "MET"),
    ("Cn1cnc2c(F)c(Nc3ccc(Br)cc3Cl)c(C(=O)NOCCO)cc21 [Selumetinib] + C[C@@H]1COCCN1C2=NC(=NC(=C2)C3(CC3)[S@](=N)(=O)C)C4=C5C=CNC5=NC=C4 [AZD6738] (first compound max 10 µM, 7x7, partner max 10 µM)", "MET"),
    ("CN(CCO)CC[C@H](CSc1ccccc1)Nc1ccc(S(=O)(=O)NC(=O)c2ccc(N3CCC([C@@H](O)c4ccccc4-c4ccc(Cl)cc4)CC3)cc2)cc1S(=O)(=O)C(F)(F)F [AZD4320] + CCN(CCO)CCCOc1ccc2c(Nc3cc(CC(=O)Nc4cccc(F)c4)[nH]n3)ncnc2c1 [AZD2811] (first compound max 1 µM, 7x7, partner max 1 µM)", "MET"),
    ("CN(CCO)CC[C@H](CSc1ccccc1)Nc1ccc(S(=O)(=O)NC(=O)c2ccc(N3CCC([C@@H](O)c4ccccc4-c4ccc(Cl)cc4)CC3)cc2)cc1S(=O)(=O)C(F)(F)F [AZD4320] + C[C@@H]1COCCN1C2=NC(=NC(=C2)C3(CC3)[S@](=N)(=O)C)C4=C5C=CNC5=NC=C4 [AZD6738] (first compound max 1 µM, 7x7, partner max 10 µM)", "NOT MET"),
    ("CC1(C)CCC(CN2CCN(c3ccc(C(=O)NS(=O)(=O)c4ccc(NCC5CCOCC5)c([N+](=O)[O-])c4)c(Oc4cnc5[nH]ccc5c4)c3)CC2)=C(c2ccc(Cl)cc2)C1 [Venetoclax] + C1CN(CCC1(C(=O)N[C@@H](CCO)C2=CC=C(C=C2)Cl)N)C3=NC=NC4=C3C=CN4 [Capivasertib] (first compound max 1 µM, 7x7, partner max 3 µM)", "MET"),
    ("Cc1cc2ncnn2cc1Nc1ncc2c(n1)n(C1CCOCC1)c(=O)n2C [AZD7648] + C=CCn1c(=O)c2cnc(Nc3ccc(N4CCN(C)CC4)cc3)nc2n1-c1cccc(C(C)(C)O)n1 [AZD1775] (first compound max 10 µM, partner max 1 µM)", "NOT MET"),
    ("C[C@@H](c1ccc2nccn2c1)n1nnc2ncc(-c3cnn(C)c3)nc21 [Savolitinib] + Cc1c2c(nn1C)CSCc1cc(n(C)n1)CSc1cc(c3ccccc3c1)OCCCc1c(C(=O)O)n(C)c3c-2c(Cl)ccc13 [AZD5991] (first compound max 1 µM, 7x7, partner max 1 µM)", "NOT MET"),
    ("Cc1cc2ncnn2cc1Nc1ncc2c(n1)n(C1CCOCC1)c(=O)n2C [AZD7648] + CCN(CCO)CCCOc1ccc2c(Nc3cc(CC(=O)Nc4cccc(F)c4)[nH]n3)ncnc2c1 [AZD2811] (first compound max 10 µM, 7x7, partner max 1 µM)", "NOT MET"),
    ("C=CCn1c(=O)c2cnc(Nc3ccc(N4CCN(C)CC4)cc3)nc2n1-c1cccc(C(C)(C)O)n1 [AZD1775] + C1CN(CCC1(C(=O)N[C@@H](CCO)C2=CC=C(C=C2)Cl)N)C3=NC=NC4=C3C=CN4 [Capivasertib] (first compound max 3 µM, partner max 3 µM)", "MET"),
    ("COc1cccc(OCCCN)c1-c1cc(Nc2cnc(C#N)cn2)n[nH]1 [Prexasertib] + Cc1cc2ncnn2cc1Nc1ncc2c(n1)n(C1CCOCC1)c(=O)n2C [AZD7648] (first compound max 1 µM, 7x7, partner max 10 µM)", "MET"),
]

IN: Decide: Bliss excess of C[C@@H](c1ccc2nccn2c1)n1nnc2ncc(-c3cnn(C)c3)nc21 [Savolitinib] + CC1(C)CCC(CN2CCN(c3ccc(C(=O)NS(=O)(=O)c4ccc(NCC5CCOCC5)c([N+](=O)[O-])c4)c(Oc4cnc5[nH]ccc5c4)c3)CC2)=C(c2ccc(Cl)cc2)C1 [Venetoclax] (first compound max 1 µM, 7x7, partner max 1 µM) >= -0.04?
OUT: NOT MET

IN: Next record, please: CN(C)CCCOc1ccc(-c2ccc3ncc4c(c3c2)n(C2CCOCC2)c(=O)n4C)cn1 [AZD0156] + C[C@@H]1COCCN1C2=NC(=NC(=C2)C3(CC3)[S@](=N)(=O)C)C4=C5C=CNC5=NC=C4 [AZD6738] (first compound max 1 µM, 7x7, partner max 10 µM)
OUT: MET

IN: Next record, please: CN(CCO)CC[C@H](CSc1ccccc1)Nc1ccc(S(=O)(=O)NC(=O)c2ccc(N3CCC([C@@H](O)c4ccccc4-c4ccc(Cl)cc4)CC3)cc2)cc1S(=O)(=O)C(F)(F)F [AZD4320] + C=CCn1c(=O)c2cnc(Nc3ccc(N4CCN(C)CC4)cc3)nc2n1-c1cccc(C(C)(C)O)n1 [AZD1775] (first compound max 1 µM, partner max 1 µM)
OUT: MET

* * *

# Tested on: TK10 (Kidney Carcinoma)
# Assay remarks: Bliss excess, mean over the matrix (fraction); higher = more synergy
Experimental endpoint: Bliss excess
Keep the answer to the number alone.

# Molecule, Bliss excess
measured = [
    ("CN(CCO)CC[C@H](CSc1ccccc1)Nc1ccc(S(=O)(=O)NC(=O)c2ccc(N3CCC([C@@H](O)c4ccccc4-c4ccc(Cl)cc4)CC3)cc2)cc1S(=O)(=O)C(F)(F)F [AZD4320] + Cc1cc2ncnn2cc1Nc1ncc2c(n1)n(C1CCOCC1)c(=O)n2C [AZD7648] (first compound max 1 µM, 7x7, partner max 10 µM)", -0.014),
]

Now, please, on to the next molecule.
IN: What is its Bliss excess for TK10 (Kidney Carcinoma)? Entry: Cc1nc(-c2cn3c(n2)-c2ccc(-c4cnn(C(C)(C)C(N)=O)c4)cc2OCC3)n(C(C)C)n1 [Taselisib] + O=C(Nc1ccc2[nH]nc(-c3ccncc3)c2c1)[C@@H]1CCN(CC(=O)N2CCN(c3ccc(-c4ncccn4)cc3)CC2)C1 [SCH772984] (first compound max 10 µM, 7x7, partner max 5 µM)
OUT: -0.008
